Target: T1, human CD40 expressed on cells (human, UniProt P25942 21-277)
T1 construct: also called huCD40; Raji cells
Assay: flow cytometry, Raji cells;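 also: cell binding of antibodies to Raji cells detected by flow cytometry using an Alexa488-labelled anti-human IgG secondary antibody, primary incubation 1 h at 4 °C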
Can you tell me EC50 for the items I'm about to list?
Numbers only, in µg/mL.

Worked examples follow.
P1AE0997, humanized anti-CD40 antibody VH1c/VL1a, huIgG1_LALA_PG (antibody, V domains shown, huIgG1 with effector silent Fc (P329G, L234A, L235A)) VH: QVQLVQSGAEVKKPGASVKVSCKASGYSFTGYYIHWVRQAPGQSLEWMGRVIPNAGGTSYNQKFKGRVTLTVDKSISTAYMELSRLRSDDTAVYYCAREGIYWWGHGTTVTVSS VL: DIVMTQTPLSLSVTPGQPASISCRSSQSLVHSNGNTFLHWYLQKPGQSPQLLIYTVSNRFSGVPDRFSGSGSGTDFTLKISRVEAEDVGVYFCSQTTHVPWTFGGGTKVEIK :: 0.12
P1AE0406, humanized anti-CD40 antibody VH2c/VL2b, huIgG1_LALA_PG (antibody, V domains shown, huIgG1 with effector silent Fc (P329G, L234A, L235A); also called VL2b/VH2c) VH: EVQLLESGGGLVQPGGSLRLSCAASGYSFTGYYIHWVRQAPGKGLEWVGRVIPNAGGTSYNQKFKGRFTISVDNSKNTAYLQMNSLRAEDTAVYYCAREGIYWWGHGTTVTVSS VL: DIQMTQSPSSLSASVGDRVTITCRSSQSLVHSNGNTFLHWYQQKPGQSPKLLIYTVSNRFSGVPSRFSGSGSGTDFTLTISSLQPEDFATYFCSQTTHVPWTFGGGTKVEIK :: 0.09

Query binder follows.
Task: I am curious: what EC50 value has been reported for P1AE0404, humanized anti-CD40 antibody VH2a/VL2b, huIgG1_LALA_PG (antibody, V domains shown, huIgG1 with effector silent Fc (P329G, L234A, L235A); also called VL2b/VH2a) VH: EVQLLESGGGLVQPGGSLRLSCAASGYSFTGYYIHWVRQAPGKGLEWVGRVIPNAGGTSYNQKFKGRFTISVDNSKNTAYLQMNSLRAEDTAVYYCAREGIYWWGQGTTVTVSS VL: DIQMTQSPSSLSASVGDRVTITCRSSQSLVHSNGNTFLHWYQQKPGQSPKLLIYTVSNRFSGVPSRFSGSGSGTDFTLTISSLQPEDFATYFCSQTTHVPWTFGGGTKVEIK ?
Output: 0.11
